EXPERIMENTAL SYSTEM: T1, human recombinant TGF-β2 (human, UniProt P09858 303-414 (pig entry))
T1 sequence: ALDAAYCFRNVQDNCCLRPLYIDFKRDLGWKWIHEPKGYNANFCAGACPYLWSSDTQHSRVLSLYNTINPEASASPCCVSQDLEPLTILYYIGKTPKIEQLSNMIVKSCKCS
PROTOCOL DETAILS: cell-based or functional assay
ASSAY ENDPOINT: CK (IC 50 [pM]), Skeletal Muscle Cell Differentiation Assay (Creatine Kinase) (pM)
Answer in pM, number only, no unit symbol.

Would you please look over these solved cases?
BINDER	READOUT VALUE
MOR14787 (antibody, human IgG1, kappa, V domains shown) VH: QVQLVQSGAEVKKPGSSVKVSCKASGGTFSSYAISWVRQAPGQGLEWMGVIVPKWGHPQYAQKFQGRVTITADESTSTAYMELSSLRSEDTAVYYCAREGDFVVLVLTEHYMGGFDVWGQGTLVTVSS VL: DIQMTQSPSSLSASVGDRVTITCRASQSIDEYLNWYQQKPGKAPKLLIYAGSNLQSGVPSRFSGSGSGTDFTLTISSLQPEDFATYYCLQGYSYPRTFGQGTKVEIKR	366
MOR14797 (antibody, human IgG1, kappa, V domains shown, (no LALA)) VH: QVTLRESGPALVKPTQTLTLTCTFSGFSLSTSGMGVGWIRQPPGKALEWLAHIYWNDDKSYSTSLKTRLTISKDTSKNQVVLTMTNMDPVDTATYYCARDFYYSGYFDSWGQGTLVTVSS VL: DIQMTQSPSSLSASVGDRVTITCRASQDISNYLNWYQQKPGKAPKLLIFGASSLQSGVPSRFSGSGSGTDFTLTISSLQPEDFATYYCQQTNTMNTFGQGTKVEIKR	105
MOR14799 (antibody, human IgG1, lambda, V domains shown) VH: QVQLVQSGAEVKKPGESLKISCKGSGYSFTRYYVAWVRQMPGKGLEWMGWIDPGQSNTRYSPSFQGQVTISADKSISTAYLQWSSLKASDTAMYYCARMLAWGWFDYWGQGTLVTVSS VL: SYELTQPLSVSVALGQTARITCSGDNLGGYYAHWYQQKPGQAPVLVIYDKSDRPSGIPERFSGSNSGNTATLTISRAQAGDEADYYCASYDSSLMMVFGGGTKLTVLG	1050
MOR14800 (antibody, human IgG1, lambda, V domains shown) VH: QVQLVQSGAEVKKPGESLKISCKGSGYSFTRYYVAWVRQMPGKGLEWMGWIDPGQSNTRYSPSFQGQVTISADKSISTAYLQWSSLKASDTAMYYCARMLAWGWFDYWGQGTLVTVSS VL: SYELTQPLSVSVALGQTARITCSGDNLGGYYAHWYQQKPGQAPVLVIYDTSDRPSGIPERFSGSNSGNTATLTISRAQAGDEADYYCASYDSSLMMVFGGGTKLTVLG	491

Look up and report measured CK (IC 50 [pM]), Skeletal Muscle Cell Differentiation Assay (Creatine Kinase) for this entry: MOR14809 (antibody, human IgG1, lambda, V domains shown) VH: QVQLVQSGAEVKKPGESLKISCKGSGYSFTRYWIAWVRQMPGKGLEWMGIIDPGTSDTRYSPSFQGQVTISADKSISTAYLQWSSLKASDTAMYYCARIDKSLILHSAFDYWGQGTLVTVSS VL: SYELTQPLSVSVALGQTARITCSGDNLGGYYAYWYQQKPGQAPVLVIYETNNRPSGIPERFSGSNSGNTATLTISRAQAGDEADYYCASTTQDYLVFVFGGGTKLTVLG
220

Look up and report measured CK (IC 50 [pM]), Skeletal Muscle Cell Differentiation Assay (Creatine Kinase) for this entry: MOR14805 (antibody, human IgG1, lambda, V domains shown) VH: QVQLVQSGAEVKKPGESLKISCKGSGYSFTRYYVAWVRQMPGKGLEWMGWIDPGTSNTRYSPSFQGQVTISADKSISTAYLQWSSLKASDTAMYYCARMLAWGWFDYWGQGTLVTVSS VL: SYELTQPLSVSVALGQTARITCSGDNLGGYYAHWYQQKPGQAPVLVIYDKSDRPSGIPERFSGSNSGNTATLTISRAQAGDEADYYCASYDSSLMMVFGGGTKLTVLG
315
